Here the recorded Ki is given for each entry.
- TEST_TARGET: ATR kinase (full-length ATR) (Homo sapiens, UniProt Q13535)
- Construct: Assays were carried out at 25° C. in the presence of 5 nM full-length ATR
- Sequence (Q13535 whole entry): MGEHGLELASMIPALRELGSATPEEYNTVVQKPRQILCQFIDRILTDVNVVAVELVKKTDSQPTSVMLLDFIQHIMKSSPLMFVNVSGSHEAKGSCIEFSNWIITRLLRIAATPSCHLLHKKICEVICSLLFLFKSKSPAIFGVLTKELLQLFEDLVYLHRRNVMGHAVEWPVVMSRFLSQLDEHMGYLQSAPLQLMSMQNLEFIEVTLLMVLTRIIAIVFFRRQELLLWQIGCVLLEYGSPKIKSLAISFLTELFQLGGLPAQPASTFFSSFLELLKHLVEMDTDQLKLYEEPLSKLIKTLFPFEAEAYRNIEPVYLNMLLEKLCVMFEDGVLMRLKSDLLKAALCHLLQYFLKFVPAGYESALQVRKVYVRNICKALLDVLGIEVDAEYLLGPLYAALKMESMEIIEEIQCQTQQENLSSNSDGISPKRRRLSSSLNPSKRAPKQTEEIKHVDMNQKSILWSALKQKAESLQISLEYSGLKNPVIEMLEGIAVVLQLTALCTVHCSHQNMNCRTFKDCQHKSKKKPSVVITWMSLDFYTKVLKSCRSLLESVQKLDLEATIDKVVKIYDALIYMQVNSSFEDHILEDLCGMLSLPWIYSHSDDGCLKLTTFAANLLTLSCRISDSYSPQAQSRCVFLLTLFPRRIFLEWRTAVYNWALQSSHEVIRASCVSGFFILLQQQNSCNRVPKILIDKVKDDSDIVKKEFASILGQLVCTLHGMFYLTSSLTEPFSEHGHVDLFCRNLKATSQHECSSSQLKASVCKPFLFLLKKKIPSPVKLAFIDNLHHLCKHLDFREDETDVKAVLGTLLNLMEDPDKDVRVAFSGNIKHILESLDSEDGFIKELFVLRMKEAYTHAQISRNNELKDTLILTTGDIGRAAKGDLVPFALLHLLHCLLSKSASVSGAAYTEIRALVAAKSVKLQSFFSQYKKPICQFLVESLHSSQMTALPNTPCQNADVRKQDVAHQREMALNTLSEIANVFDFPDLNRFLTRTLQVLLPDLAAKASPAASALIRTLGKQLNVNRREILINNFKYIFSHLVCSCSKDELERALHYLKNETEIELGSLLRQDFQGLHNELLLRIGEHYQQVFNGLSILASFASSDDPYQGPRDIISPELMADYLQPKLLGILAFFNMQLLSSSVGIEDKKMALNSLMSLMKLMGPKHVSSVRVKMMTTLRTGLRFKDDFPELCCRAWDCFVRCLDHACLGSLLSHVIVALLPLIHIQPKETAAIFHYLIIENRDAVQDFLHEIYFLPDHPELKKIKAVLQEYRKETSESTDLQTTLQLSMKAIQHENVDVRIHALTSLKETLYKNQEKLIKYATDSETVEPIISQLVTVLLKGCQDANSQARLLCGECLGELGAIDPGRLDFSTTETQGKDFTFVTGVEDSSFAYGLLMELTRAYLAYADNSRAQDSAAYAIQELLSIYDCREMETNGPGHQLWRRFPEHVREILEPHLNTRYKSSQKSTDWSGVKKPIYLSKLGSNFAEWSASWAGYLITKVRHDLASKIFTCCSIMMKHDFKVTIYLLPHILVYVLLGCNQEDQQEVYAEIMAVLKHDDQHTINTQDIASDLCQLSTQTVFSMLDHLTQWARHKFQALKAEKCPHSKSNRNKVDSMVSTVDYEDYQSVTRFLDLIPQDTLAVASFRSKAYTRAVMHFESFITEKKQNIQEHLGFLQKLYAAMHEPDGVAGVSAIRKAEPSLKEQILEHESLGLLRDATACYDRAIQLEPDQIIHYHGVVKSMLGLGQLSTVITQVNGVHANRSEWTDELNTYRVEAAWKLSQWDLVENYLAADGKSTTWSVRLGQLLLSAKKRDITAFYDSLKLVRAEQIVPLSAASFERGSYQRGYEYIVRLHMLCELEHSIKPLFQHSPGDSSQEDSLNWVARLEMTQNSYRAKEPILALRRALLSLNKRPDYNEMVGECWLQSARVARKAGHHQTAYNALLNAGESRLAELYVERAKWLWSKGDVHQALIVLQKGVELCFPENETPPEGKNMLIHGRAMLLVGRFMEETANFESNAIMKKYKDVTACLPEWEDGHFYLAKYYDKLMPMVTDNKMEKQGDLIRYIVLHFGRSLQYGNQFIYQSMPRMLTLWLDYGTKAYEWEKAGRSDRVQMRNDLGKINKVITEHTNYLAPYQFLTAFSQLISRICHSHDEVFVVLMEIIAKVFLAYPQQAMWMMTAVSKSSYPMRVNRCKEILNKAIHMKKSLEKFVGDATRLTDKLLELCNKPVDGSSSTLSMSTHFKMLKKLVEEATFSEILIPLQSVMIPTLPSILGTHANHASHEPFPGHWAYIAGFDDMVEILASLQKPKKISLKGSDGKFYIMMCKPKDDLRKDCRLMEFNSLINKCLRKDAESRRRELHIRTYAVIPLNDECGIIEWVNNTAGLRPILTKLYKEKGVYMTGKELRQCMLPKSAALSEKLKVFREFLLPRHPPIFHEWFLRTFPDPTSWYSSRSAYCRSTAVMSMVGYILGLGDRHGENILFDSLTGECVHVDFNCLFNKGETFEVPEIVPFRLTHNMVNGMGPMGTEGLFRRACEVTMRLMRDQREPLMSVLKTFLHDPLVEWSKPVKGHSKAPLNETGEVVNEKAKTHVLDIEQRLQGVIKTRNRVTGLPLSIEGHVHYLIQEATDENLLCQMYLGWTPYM
- PROTOCOL_DESCRIPTION: ATR Inhibition Assay (radioactive-phosphate incorporation)
- Assay type: biochemical
- CONDITION_PARAMETERS: Ki(app); 5 nM full-length ATR, 10 μM ATP, 800 μM target peptide, 25° C.; class symbols; read-out: ATR Inhibition Ki
- Procedure: Compounds were screened for their ability to inhibit ATR kinase using a radioactive-phosphate incorporation assay. Assays were carried out in a mixture of 50 mM Tris/HCl (pH 7.5), 10 mM MgCl2 and 1 mM DTT. […] After removing mean background values for all of the data points, Ki(app) data were calculated from non-linear regression analysis of the initial rate data using the Prism software package (GraphPad Prism version 3.0cx for Macintosh, GraphPad Software, San Diego Calif., USA).

For orientation, consider the following solved cases.
| SUBSTANCE_SMILES | Ki |
| --- | --- |
| Cc1cccc(CNC(=O)c2c[nH]c3ncc(-c4ccc(S(=O)(=O)C(C)C)cc4)nc23)c1Cl | < 100 nM |
| CC(C)S(=O)(=O)c1ccc(-c2cnc3[nH]cc(C(=O)Nc4cccc(N)c4)c3n2)cc1 | < 100 nM |
| CC(C)S(=O)(=O)c1ccc(-c2cnc3[nH]cc(C(=O)Nc4ccncc4)c3n2)cc1 | 100 to 500 nM |
| CC(C)S(=O)(=O)c1ccc(-c2cnc3[nH]cc(C(=O)Nc4cccc(C#N)c4)c3n2)cc1 | 100 to 500 nM |
| Cc1ccc(CNC(=O)c2c[nH]c3ncc(-c4ccc(S(=O)(=O)C(C)C)cc4)nc23)c(C)c1 | < 100 nM |

Form: Entry = CC(C)S(=O)(=O)c1ccc(-c2cnc3[nH]cc(C(=O)N[C@@H](CCO)c4ccccc4)c3n2)cc1 | System = ATR kinase (full-length ATR) (Homo sapiens, UniProt Q13535) | Ki = ____
500 to 5000 nM

Form: Entry = CC(C)S(=O)(=O)c1ccc(-c2cnc3[nH]cc(C(=O)NCC4(C)COC4)c3n2)cc1 | System = ATR kinase (full-length ATR) (Homo sapiens, UniProt Q13535) | Ki = ____
500 to 5000 nM
